Reference source for all entries: ChEMBL document CHEMBL1201862

Test system: XF498
Experiment: NCI tumour cell line growth inhibition, 48 h
The source made the active and inactive calls. Cut-off read from the data, not from the text of the source: active = GI50 up to about 1.1 µM and inactive = higher.
Assign a class; possible classes are true (1) = active, false (0) = inactive

QUERY: Called result for "CO/C(=N\N=C\c1ccc(Cl)cc1)c1ccncc1"
RESULT: false (0)

QUERY: Called result for "CN(C)c1ccc(C=C2C(=O)OC(C)(C)OC2=O)cc1Br"
RESULT: false (0)

QUERY: Called result for Cc1c(Cl)cccc1NC(=O)C(=O)C(C(=O)c1ccccc1-c1ccccc1)C1OC(=O)c2ccccc21 (stereo not given)
RESULT: false (0)

QUERY: Called result for "O=C1c2ccccc2-c2cccc3ccc(Cc4ccc5ccccc5c4)c1c23"
RESULT: false (0)

QUERY: Called result for CCN(CC)c1ccc2c(c1)Oc1ccc(N(CC)CC)cc1C21Oc2ccccc2-c2c1c1ccccc1n2CC (stereo not given)
RESULT: true (1)

---

Tested on: DLD-1
Assay: NCI tumour cell line growth inhibition, 48 h
Calls of active or inactive are those of the source. Rule as the data show it: active = GI50 up to about 1.1 µM and inactive = higher.
Assign a class; possible classes are 1 (yes) (active), 0 (no) (inactive)

QUERY: Called result for "CN1C=C(C(N)=O)Cc2ccsc21"
RESULT: 0 (no)

QUERY: Called result for c1ccc(C2N=C(c3ccccn3)C(c3ccccn3)=NC2c2ccccc2)cc1 (stereo unspecified)
RESULT: 0 (no)

QUERY: Called result for "CCN(CC)CC[n+]1ccc2c(C)c3[nH]c4ccccc4c3c(C)c2c1"
RESULT: 0 (no)

QUERY: Called result for Cc1c(Cl)cccc1NC(=O)C(=O)C(C(=O)c1ccccc1-c1ccccc1)C1OC(=O)c2ccccc21 (stereo unspecified)
RESULT: 0 (no)

QUERY: Called result for CC(C)COC(=O)N1N=NC2C3CC(=O)C(O3)C21 (stereo unspecified)
RESULT: 0 (no)

QUERY: Called result for C=C1CC2CC[C@@]34C[C@H]5O[C@@H]6C(O[C@H]7CC[C@H](CC(=O)OC8[C@H](C)C9OC%10C[C@]%11(C[C@@H]%12O[C@]%13(C[C@H](C)[C@@H]%14O[C@H]([C@H](O)C[C@H](O)CO)C[C@@H]%14O%13)C[C@H](C)[C@@H]%12O%11)OC%10CC9O[C@H]8C[C@H]8O[C@H](CC[C@@H]1O2)C[C@@H](C)C8=C)O[C@H]7[C@@H]6O3)[C@@H]5O4 (stereo partly specified)
RESULT: 1 (yes)

QUERY: Called result for "Oc1ccc(I)c2cccnc12"
RESULT: 0 (no)

QUERY: Called result for CC(C)N1CN(C(C(=O)N[C@@H]2C(=O)N3C2SC(C)(C)C3C(=O)O)c2ccccc2)CSC1=S (stereo partly specified)
RESULT: 0 (no)

QUERY: Called result for Cc1cccc(NC(=O)C(=O)C(C(=O)c2ccccc2F)C2OC(=O)c3ccccc32)c1Cl (stereo unspecified)
RESULT: 0 (no)

QUERY: Called result for Cc1ccc(C)c(NC2=NC(=O)C(CC(=O)Nc3ccc(Cl)cc3Cl)S2)c1 (stereo unspecified)
RESULT: 0 (no)

QUERY: Called result for "CNC(=O)CN(CC(=O)O)C(=O)NC"
RESULT: 0 (no)

QUERY: Called result for CN1CCN(CN2C(=O)C3C4C=CC(C3C2=O)C2C3C(=O)N(CN5CCN(C)CC5)C(=O)C3C42)CC1 (stereo unspecified)
RESULT: 0 (no)

QUERY: Called result for "COc1ccc(C(=O)/C(=N/Nc2ccccc2)c2ccc(OC)cc2)cc1"
RESULT: 0 (no)

QUERY: Called result for [C-]#[N+]C(C)(C)C[C@H]1CC(C)C2CCC(C)C3([N+]#[C-])CCC(=C)C1[C@H]23 (stereo partly specified)
RESULT: 1 (yes)

QUERY: Called result for CCN(CC)c1ccc2c(c1)Oc1ccc(N(CC)CC)cc1C21Oc2ccccc2-c2c1c1ccccc1n2CC (stereo unspecified)
RESULT: 0 (no)

QUERY: Called result for "O=C(O)CN(c1ccccc1)S(=O)(=O)c1ccccc1[N+](=O)[O-]"
RESULT: 0 (no)

QUERY: Called result for "C/C(=N\NC(=S)Nc1ccc(C(=O)O)cc1)c1ccccn1"
RESULT: 0 (no)

QUERY: Called result for "COc1ccc(CNC2=C(NC(C)=O)C(=O)c3ccccc3C2=O)cc1"
RESULT: 0 (no)

QUERY: Called result for "CC1CCN(c2cc(-c3cc4ccccc4o3)oc(=O)c2C#N)CC1"
RESULT: 0 (no)

QUERY: Called result for CCOC(=O)Nc1cc2c(c(N)n1)N=C(c1ccccc1)[C@H](C)N2 [MIVOBULIN ISETHIONATE]
RESULT: 1 (yes)

QUERY: Called result for "CC(=O)N(C)c1ccc2ncccc2c1[N+](=O)[O-]"
RESULT: 0 (no)
